IC50, human RORgammaT-Ligand Binding Domain (LBD) (Homo sapiens (Human)), per-entry values.
Write down the numeric answer in nM and omit the unit.

Example molecules with recorded IC50:
CCc1nc(S(=O)(=O)N2C[C@H](CC(C)(C)C(=O)O)Oc3ccc(NC(=O)OC(C)(C)C(F)(F)F)cc32)c(OC(C)C)s1 [Example 12S]	16.4
CC[C@@H](C[C@H]1CN(S(=O)(=O)c2cn(CC)nc2OCCO)c2cc(NC(=O)OC(C)(C)C(F)(F)F)ccc2O1)C(=O)O (single isomer, unassigned) [Example 10N]	67.2
COc1cc(S(=O)(=O)N2C[C@H](CCC(=O)O)Oc3ccc(NC(=O)OC4(C(F)(F)F)CCC4)cc32)ccc1F [Example 24B]	12
CCOc1sc(CC)nc1S(=O)(=O)N1C[C@H](CC(C)(C)C(=O)O)Oc2ccc(NC(=O)OC(C)(C)C(F)(F)F)cc21 [Example 12P]	9.22
CC(C)(OC(=O)Nc1ccc2c(c1)N(S(=O)(=O)c1cc(C3CC3)ccc1F)C[C@H](CCC(=O)O)O2)C(F)(F)F [Example 6CH]	18.1
CCn1cc(S(=O)(=O)N2C[C@H](CCC(=O)O)Oc3ccc(NC(=O)OC(C)(C)C(F)(F)F)cc32)c(OCCO)n1 (stereo in doubt) [Example 6CA]	11.4
COc1cc(S(=O)(=O)N2C[C@H](C[C@@](C)(O)C(=O)O)Oc3ccc(NC(=O)OC(C)(C)C(F)(F)F)cc32)ccc1F (single isomer, unassigned) [Example 18A]	12.9
Cc1ccc(S(=O)(=O)N2C[C@H]([C@H]3C[C@H]3C(=O)O)Oc3ccc(NC(=O)OC(C)(C)C(F)(F)F)cc32)cc1 (single isomer, unassigned) [Example 22E]	47.1

Tested on human RORgammaT-Ligand Binding Domain (LBD) (Homo sapiens (Human)): CC(C)(OC(=O)Nc1ccc2c(c1)N(S(=O)(=O)c1cccc(Br)c1)C[C@H](CCC(=O)O)O2)C(F)(F)F [Example 6AA] . Observed IC50: 6

Tested on human RORgammaT-Ligand Binding Domain (LBD) (Homo sapiens (Human)): COc1cc(S(=O)(=O)N2C[C@H]([C@@H]3C[C@@H]3C(=O)O)Oc3ccc(NC(=O)OC(C)(C)C(F)(F)F)cc32)ccc1F (single isomer, unassigned) [Example 22N] . Observed IC50: 5.87

Tested on human RORgammaT-Ligand Binding Domain (LBD) (Homo sapiens (Human)): CC(C)(OC(=O)Nc1ccc2c(c1)N(S(=O)(=O)c1cccc(C3CC3)c1)C[C@H](CC1(C(=O)O)CC1)O2)C(F)(F)F [Example 14B] . Observed IC50: 17.5

Tested on human RORgammaT-Ligand Binding Domain (LBD) (Homo sapiens (Human)): CC[C@H](C[C@H]1CN(S(=O)(=O)c2cn(CC)nc2OCCO)c2cc(NC(=O)OC(C)(C)C(F)(F)F)ccc2O1)C(=O)O (single isomer, unassigned) [Example 10L] . Observed IC50: 49.5

Data credit: patent US9783511B2
